target: Sialidase-3 (Homo sapiens); assay: Inhibition of MBP-fused recombinant human neuraminidase 3 expressed in Escherichia coli using 4MU-NANA as substrate preincubated for 15 mins followed by substrate addition measured after 30 mins by fluorescence analysis
Sequence (Q9UQ49 whole entry, the tested form may be a part): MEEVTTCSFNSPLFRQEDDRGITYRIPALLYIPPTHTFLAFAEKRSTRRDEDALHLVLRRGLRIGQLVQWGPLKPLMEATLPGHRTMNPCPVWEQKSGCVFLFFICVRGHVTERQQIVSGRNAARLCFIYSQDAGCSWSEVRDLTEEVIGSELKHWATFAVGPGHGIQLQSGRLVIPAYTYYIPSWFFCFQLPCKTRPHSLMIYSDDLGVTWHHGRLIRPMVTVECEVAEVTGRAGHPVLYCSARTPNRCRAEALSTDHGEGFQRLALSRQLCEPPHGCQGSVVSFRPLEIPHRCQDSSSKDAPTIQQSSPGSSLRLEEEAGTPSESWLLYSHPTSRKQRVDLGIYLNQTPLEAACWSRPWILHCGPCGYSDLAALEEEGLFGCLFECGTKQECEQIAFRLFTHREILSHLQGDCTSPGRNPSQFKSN
Field: IC50. Provide a value for each of the compounds that follow.

// lookup IC50 for CCC(CC)[C@H](NC(C)=O)[C@@H]1[C@H](O)[C@@H](C(=O)O)C[C@H]1NC(=N)N [PERAMIVIR ANHYDROUS]
> 500 µM

Which IC50 value is on record for `CCOC(=O)C1=C[C@@H](OC(CC)CC)[C@H](NC(C)=O)[C@@H](N)C1` ?
> 500 µM

Give its IC50 value. Item: CC(=O)N[C@H]1[C@H]([C@H](O)[C@H](O)CO)OC(O)(C(=O)O)C[C@@H]1O (stereo partly drawn)
> 500 µM

Data provenance: ChEMBL document CHEMBL4270532
